- testMethodNotes: Solubility screening of bifenthrin in various solvents
- Assay type: physicochemical
readout: Solubility of Bifenthrin, 20 wt %

As a guide, the following entries are already answered.
[
  {
    "compound": "CC(O)COc1ccccc1 (centres unmarked)",
    "readout": "Solubility of Bifenthrin, 20 wt %",
    "valueReported": "NO"
  },
  {
    "compound": "CCCCOCCOC(=O)c1ccccc1 [XU40782.00, ethylene glycol n-butyl ether benzoate]",
    "readout": "Solubility of Bifenthrin, 20 wt %",
    "valueReported": "YES"
  },
  {
    "compound": "CCOCCOCCO",
    "readout": "Solubility of Bifenthrin, 20 wt %",
    "valueReported": "YES"
  },
  {
    "compound": "CCCCOCCOCCOC(C)=O [BUTYL CARBITOL ™ ACETATE, diethylene glycol n-butyl ether acetate]",
    "readout": "Solubility of Bifenthrin, 20 wt %",
    "valueReported": "YES"
  },
  {
    "compound": "CCCCOC(C)COC(C)COC(C)CO (centres unmarked)",
    "readout": "Solubility of Bifenthrin, 20 wt %",
    "valueReported": "YES"
  }
]

Query: May I ask what Solubility of Bifenthrin, 20 wt % has been recorded for CC(=O)OCC(C)OC(C)=O (centres unmarked) [DOWANOL ™ PGDA, propylene glycol diacetate] ?
Result: YES

Query: Same read-out for CCCCCCCCCCCC(=O)OCC [DIAMOSOLV ™ 323, ethyl laurate] ?
Result: YES

Query: Please give the result for CC(CO)OCC(C)Oc1ccccc1 (centres unmarked) too.
Result: NO
